- TESTED_SYSTEM: IRAK1 (Homo sapiens, UniProt P51617)
- Sequence (P51617 whole entry): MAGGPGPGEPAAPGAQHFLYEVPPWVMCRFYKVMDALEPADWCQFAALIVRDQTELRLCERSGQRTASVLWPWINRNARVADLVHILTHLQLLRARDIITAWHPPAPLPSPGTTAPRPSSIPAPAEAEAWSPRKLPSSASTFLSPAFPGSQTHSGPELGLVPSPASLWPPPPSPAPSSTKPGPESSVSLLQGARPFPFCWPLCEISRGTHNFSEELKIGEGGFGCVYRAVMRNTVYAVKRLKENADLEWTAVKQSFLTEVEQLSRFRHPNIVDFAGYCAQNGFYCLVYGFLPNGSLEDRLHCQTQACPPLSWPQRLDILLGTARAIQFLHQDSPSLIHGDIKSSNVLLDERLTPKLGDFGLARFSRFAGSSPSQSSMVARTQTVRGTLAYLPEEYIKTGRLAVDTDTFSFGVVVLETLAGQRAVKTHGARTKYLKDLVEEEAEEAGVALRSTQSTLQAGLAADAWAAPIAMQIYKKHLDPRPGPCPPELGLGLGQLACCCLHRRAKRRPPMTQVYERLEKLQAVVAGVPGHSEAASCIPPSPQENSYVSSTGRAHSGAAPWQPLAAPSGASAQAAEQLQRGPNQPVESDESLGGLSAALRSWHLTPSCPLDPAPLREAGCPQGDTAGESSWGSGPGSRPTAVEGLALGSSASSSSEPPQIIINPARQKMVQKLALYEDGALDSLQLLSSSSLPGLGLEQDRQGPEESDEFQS
- PROTOCOL_DESCRIPTION: RBC HotSpot Kinase Assay, IRAK1
- CONDITION_SUMMARY: IRAK1 IC50
pIC50: −log10 of the molar value.
Classify as follows. Reported pIC50 greater than or equal to 8: Condition met. Reported pIC50 below: Condition not met.

{"COMPOUND": "CC(C)(O)c1ccc2ncc(-c3ccnc(N[C@H]4CNCC[C@@H]4F)n3)n2c1", "CLASS_ASSIGNMENT": "Condition not met"}
{"COMPOUND": "COc1cc2ncc(-c3ccnc(N[C@@H]4CCCNC4)n3)n2nc1C1CC1", "CLASS_ASSIGNMENT": "Condition not met"}
{"COMPOUND": "CC(O)(c1cn2c(-c3cncc(N[C@@H]4CCCNC4)n3)cnc2cn1)C(F)(F)F (single isomer, unassigned) [Compound 74]", "CLASS_ASSIGNMENT": "Condition not met"}
{"COMPOUND": "CC(O)(c1cn2c(-c3ccnc(N[C@H]4CNCC[C@@H]4F)n3)cnc2cn1)C(F)(F)F (single isomer, unassigned) [Compound 72]", "CLASS_ASSIGNMENT": "Condition met"}
{"COMPOUND": "O=C1CCCN1c1cn2c(-c3ccnc(N[C@H]4CNCC[C@@H]4F)n3)cnc2cn1", "CLASS_ASSIGNMENT": "Condition not met"}

--- query ---
Given FC(F)COc1ccn2c(-c3ccnc(N[C@@H]4CCCNC4)n3)cnc2c1 , state whether its pIC50 is at least 8.
Condition not met

----------
Property: pIC50; scope: individual compounds
- TESTED_SYSTEM: IRAK1 (Homo sapiens, UniProt P51617)
- PROTOCOL_DESCRIPTION: RBC HotSpot Kinase Assay, IRAK1
- CONDITION_SUMMARY: IRAK1 IC50
# reply with the number alone; pIC50 is -log10 of concentration in mol/L

{"COMPOUND": "c1cc(-c2cnc3cc(OC4CC4)ccn23)nc(N[C@@H]2CCCNC2)n1 [Compound 38]", "pIC50": 7.22}
{"COMPOUND": "CC(O)(c1cn2c(-c3cncc(N[C@H]4CNCC[C@@H]4F)n3)cnc2cn1)C(F)(F)F (single isomer, unassigned) [Compound 76]", "pIC50": 8.10}

Okay, now this compound:
// recorded pIC50 for COc1cc2ncc(-c3cncc(N[C@H]4CNC[C@@H]4F)n3)n2nc1C1CC1 [Compound 22] : 7.21

----------
Reported values of IC50 for individual entries
- TESTED_SYSTEM: IRAK4 (Homo sapiens)
- Sequence (Q9NWZ3 whole entry): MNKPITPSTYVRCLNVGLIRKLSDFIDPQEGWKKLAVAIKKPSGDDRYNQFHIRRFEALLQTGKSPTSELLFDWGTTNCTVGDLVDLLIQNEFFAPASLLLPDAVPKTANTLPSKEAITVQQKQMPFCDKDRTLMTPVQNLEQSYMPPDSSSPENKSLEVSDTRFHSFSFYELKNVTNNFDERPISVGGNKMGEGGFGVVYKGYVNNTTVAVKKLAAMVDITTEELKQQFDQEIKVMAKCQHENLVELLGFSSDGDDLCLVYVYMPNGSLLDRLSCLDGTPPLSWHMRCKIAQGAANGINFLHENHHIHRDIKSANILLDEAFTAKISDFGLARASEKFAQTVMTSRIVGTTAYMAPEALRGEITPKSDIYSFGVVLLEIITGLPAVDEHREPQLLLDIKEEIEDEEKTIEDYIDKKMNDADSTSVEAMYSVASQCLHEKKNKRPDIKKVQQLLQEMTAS
- PROTOCOL_DESCRIPTION: RBC HotSpot Kinase Assay, IRAK4
- CONDITION_SUMMARY: IRAK4 IC50
Kindly answer with a numeric value in nM, unit omitted.

Lab note: measured IC50 of CC(C)Oc1ccn2c(-c3nccc(N[C@H]4CNC[C@@H]4F)n3)cnc2c1 [Compound 52] was 42

Notebook: COc1cc2ncc(-c3cncc(N[C@@H]4CCCNC4)n3)n2cc1C(C)(O)C(F)(F)F (single isomer, unassigned) [Compound 63] , IC50 read as 0.7

// recorded IC50 for COc1ccn2c(-c3ccnc(N[C@H]4CNC[C@@H]4F)n3)cnc2c1 [Compound 28] : 0.8

Recorded result, CC(C)(O)c1ccc2ncc(-c3ccnc(N[C@@H]4CCCNC4)n3)n2c1 [Compound 41] , IC50: 8

Record CC(C)(O)c1ccc2ncc(-c3ccnc(N[C@H]4CNC[C@@H]4F)n3)n2c1 [Compound 40] . Reported IC50: 1

Given item COc1cc2ncc(-c3cncc(N[C@H]4CNCC[C@@H]4F)n3)n2nc1C(C)(O)C(F)(F)F (single isomer, unassigned) [Compound 79] , the value recorded as its IC50 is 367

For COc1cc2ncc(-c3ccnc(N[C@@H]4CCCNC4)n3)n2nc1C1CC1 [Compound 50] the compound record lists IC50 as 4

Reported IC50 for CC(O)(c1cn2c(-c3cncc(N[C@@H]4CCCNC4)n3)cnc2cn1)C(F)(F)F (single isomer, unassigned) [Compound 73] was 37

Form field IC50, entry O=C1CCCN1c1cn2c(-c3ccnc(N[C@@H]4CCCNC4)n3)cnc2cn1 [Compound 47] : 12

Record COc1cc2ncc(-c3cncc(N[C@H]4CNC[C@@H]4F)n3)n2cc1C(C)(C)O [Compound 19] . Reported IC50: 0.8
